FYI, the data here is from the supplement of paper PMC10724198.

- System: Saccharomyces cerevisiae
- method_description: protein stability index of tFT-peptide fusion (C-terminal peptide) (PSI (0-1 scale)); higher = more stable (slower turnover);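 also: PSI is a weighted mean of sequencing reads over stability bins, variants kept only with over 10 reads, mCherry proximal and sfGFP distal, peptide attached via GGGS linker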
- reported_conditions: genetic background: wild type; temperature: 37 C

{"seq_string": "LIFFFCSWVFRF", "protein stability index": 0.365}
{"seq_string": "LFHPPSFSLRLF", "protein stability index": 0.562}
{"seq_string": "CFSVFSVLCFFV", "protein stability index": 0.513}
{"seq_string": "VVTLHISLFYPG", "protein stability index": 0.461}
{"seq_string": "FPTLVRKFINAI", "protein stability index": 0.123}
{"seq_string": "PLLPLPRFPLFA", "protein stability index": 0.529}
{"seq_string": "VCFLCIWLYSED", "protein stability index": 0.418}
{"seq_string": "RLELTRIMIVAI", "protein stability index": 0.102}
{"seq_string": "RSRCVRAAVKVG", "protein stability index": 0.427}
{"seq_string": "LLLPSAPFLFLL", "protein stability index": 0.288}
{"seq_string": "GAQQRVKERYIE", "protein stability index": 0.741}
{"seq_string": "LRSVVFFCRTLL", "protein stability index": 0.566}
{"seq_string": "GCLSFVAAVHLH", "protein stability index": 0.528}

---

- Test system: Saccharomyces cerevisiae
- method_description: protein stability index of tFT-peptide fusion (C-terminal peptide) (PSI (0-1 scale)); higher = more stable (slower turnover)
- reported_conditions: genetic background: wild type; temperature: 30 C
List of protein stability index values.

{"seq_string": "PPPRLPSRPPPP", "protein stability index": 0.716}
{"seq_string": "CGHMSTSNANLS", "protein stability index": 0.687}
{"seq_string": "SRHGRTTKDFLQ", "protein stability index": 0.682}
{"seq_string": "PRVLVVSAVNTV", "protein stability index": 0.695}
{"seq_string": "KDKKERTTEKKT", "protein stability index": 0.693}
{"seq_string": "PPTPPRLHRSPP", "protein stability index": 0.69}
{"seq_string": "GKRWPSINKGPV", "protein stability index": 0.685}
{"seq_string": "RSRLPPPPLLFP", "protein stability index": 0.702}
{"seq_string": "AHPLSPLSSPLR", "protein stability index": 0.682}
{"seq_string": "RTRPAMSRCSKR", "protein stability index": 0.704}
{"seq_string": "PPSHIPASGTKR", "protein stability index": 0.716}
{"seq_string": "APAPSLPTSGEL", "protein stability index": 0.701}
{"seq_string": "DCDVLCGSGRRR", "protein stability index": 0.703}
{"seq_string": "GSLFVNRNCTVS", "protein stability index": 0.697}
{"seq_string": "SLSSAPPIPPTL", "protein stability index": 0.697}

---

- Tested on: Saccharomyces cerevisiae
- method_description: protein stability index of tFT-peptide fusion (C-terminal peptide) (PSI (0-1 scale)); higher = more stable (slower turnover)
- reported_conditions: genetic background: wild type; temperature: 30 C

{"seq_string": "ARGRAVRAAGAS", "protein stability index": 0.688}
{"seq_string": "SGTPTFTPSYPS", "protein stability index": 0.717}
{"seq_string": "PGAPPPASPPST", "protein stability index": 0.714}
{"seq_string": "TRGSRGARGGGW", "protein stability index": 0.716}
{"seq_string": "PPPHPTPPLTSP", "protein stability index": 0.702}
{"seq_string": "GMVTCTSPRCHK", "protein stability index": 0.694}
{"seq_string": "FPSSPPAHAAPH", "protein stability index": 0.68}
{"seq_string": "PPPYPFPHLSPL", "protein stability index": 0.713}
{"seq_string": "LPSLDSVCLLFP", "protein stability index": 0.685}
{"seq_string": "WRAGSGGGPLAS", "protein stability index": 0.68}
{"seq_string": "LSLPQPHPPLKS", "protein stability index": 0.679}
{"seq_string": "GAIKKTQGGGYK", "protein stability index": 0.69}
{"seq_string": "ERNSKKKRKRRL", "protein stability index": 0.701}
{"seq_string": "GGWSGRFVTVGR", "protein stability index": 0.713}
{"seq_string": "PPPRLRSPHGLF", "protein stability index": 0.718}
{"seq_string": "KEEKLKNKITKY", "protein stability index": 0.679}
{"seq_string": "LLSPPFPPPAMV", "protein stability index": 0.695}
{"seq_string": "SGFLPPRFLSPS", "protein stability index": 0.69}
{"seq_string": "TLLAALIRFDAV", "protein stability index": 0.691}
{"seq_string": "SPRFSPPAILHN", "protein stability index": 0.71}
{"seq_string": "VGGRVCQSEGVE", "protein stability index": 0.685}
{"seq_string": "VSTVFGCDICST", "protein stability index": 0.701}
{"seq_string": "FVGSVFWCWSGR", "protein stability index": 0.706}
{"seq_string": "SAVVPYLGWSPV", "protein stability index": 0.708}
{"seq_string": "PKSRTLKDITIF", "protein stability index": 0.684}
{"seq_string": "RTEMASLERKSF", "protein stability index": 0.696}
{"seq_string": "SPPTCPNQLGPP", "protein stability index": 0.7}
{"seq_string": "VPSRRLPLPPAS", "protein stability index": 0.695}
{"seq_string": "VGVWDGCLLGLG", "protein stability index": 0.695}
{"seq_string": "LFPFIPPRLPLP", "protein stability index": 0.687}
{"seq_string": "ALTWVGEGLRGS", "protein stability index": 0.699}
{"seq_string": "KKKKPKQKQKET", "protein stability index": 0.686}
